# assayedTarget: human FOLR1 (recombinant antigen) (human) (UniProt P15328)
# Sequence (P15328 25-234 limits assumed): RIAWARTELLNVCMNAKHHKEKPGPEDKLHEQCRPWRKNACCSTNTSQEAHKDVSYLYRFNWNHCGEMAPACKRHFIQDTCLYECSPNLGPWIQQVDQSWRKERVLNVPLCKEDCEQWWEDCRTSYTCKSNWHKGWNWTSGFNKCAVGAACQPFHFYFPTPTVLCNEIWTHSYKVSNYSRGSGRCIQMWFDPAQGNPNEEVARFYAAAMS
# methodDescription: ELISA on hFOLR1
readoutKind: pEC50
Please keep in mind that pEC50 is minus log10 of the molar concentration; only the number is needed.

In the examples that follow, each entry is paired with its recorded pEC50.
[
  {
    "binder": "Anti-FOLR1x4 GGSx4 (monospecific tetravalent VHH-VHH-Fc) (antibody, part only; not given: hinge and wild-type Fc, not shown: a dimerising Fc or GST) chain, part: QVQLVESGGGLVQPGGSLRLSCAASGFTVSNSVMAWYRQTPGNEREFVAIINSIGITNYADSVKGRFTISRDNSKNTLYLQMNSLRAEDTAVYVCNRNFDRIYWGQGTLVTVSSGGSGGSGGSGGSQVQLVESGGGLVQPGGSLRLSCAASGFTVSNSVMAWYRQTPGNEREFVAIINSIGITNYADSVKGRFTISRDNSKNTLYLQMNSLRAEDTAVYVCNRNFDRIYWGQGTLVTVSS",
    "pEC50": 9.85
  },
  {
    "binder": "Anti-FOLR1x4 GGGGSx3 (monospecific tetravalent VHH-VHH-Fc) (antibody, part only; not given: hinge and wild-type Fc, not shown: a dimerising Fc or GST) chain, part: QVQLVESGGGLVQPGGSLRLSCAASGFTVSNSVMAWYRQTPGNEREFVAIINSIGITNYADSVKGRFTISRDNSKNTLYLQMNSLRAEDTAVYVCNRNFDRIYWGQGTLVTVSSGGGGSGGGGSGGGGSQVQLVESGGGLVQPGGSLRLSCAASGFTVSNSVMAWYRQTPGNEREFVAIINSIGITNYADSVKGRFTISRDNSKNTLYLQMNSLRAEDTAVYVCNRNFDRIYWGQGTLVTVSS",
    "pEC50": 9.92
  },
  {
    "binder": "Farletuzumab (antibody, INN chains, looked up, V domains shown) VH: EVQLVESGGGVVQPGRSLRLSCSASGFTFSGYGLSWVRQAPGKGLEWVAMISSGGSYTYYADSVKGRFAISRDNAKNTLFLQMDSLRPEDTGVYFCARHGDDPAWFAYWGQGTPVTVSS VL: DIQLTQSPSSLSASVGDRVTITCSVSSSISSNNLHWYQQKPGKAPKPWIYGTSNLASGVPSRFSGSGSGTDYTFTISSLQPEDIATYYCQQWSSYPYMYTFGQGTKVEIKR",
    "pEC50": 9.92
  }
]

What the record says about Anti-FOLR1x4 GGSx3 (monospecific tetravalent VHH-VHH-Fc) (antibody, part only; not given: hinge and wild-type Fc, not shown: a dimerising Fc or GST) chain, part: QVQLVESGGGLVQPGGSLRLSCAASGFTVSNSVMAWYRQTPGNEREFVAIINSIGITNYADSVKGRFTISRDNSKNTLYLQMNSLRAEDTAVYVCNRNFDRIYWGQGTLVTVSSGGSGGSGGSQVQLVESGGGLVQPGGSLRLSCAASGFTVSNSVMAWYRQTPGNEREFVAIINSIGITNYADSVKGRFTISRDNSKNTLYLQMNSLRAEDTAVYVCNRNFDRIYWGQGTLVTVSS : pEC50 is 9.96
